System Tested: T1, flag-tagged soluble TL3 (amino acids 105-251 of SEQ ID NO:234) (Homo sapiens (Human), UniProt O75888 105-250)
T1 construct: Heterologous flag-tagged control protein, immobilized in the ELISA; also called flagged tagged TL-3; not shown: Flag tag
T1 sequence: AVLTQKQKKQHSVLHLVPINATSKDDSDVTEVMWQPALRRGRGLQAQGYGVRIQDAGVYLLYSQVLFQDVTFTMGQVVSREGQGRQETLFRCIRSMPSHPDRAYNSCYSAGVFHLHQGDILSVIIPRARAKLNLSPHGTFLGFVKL
Method: phage ELISA on immobilized flag-tagged soluble TL3
Assay Endpoint: binding result

GMBC673 (scFv) scFv: EVQLVESGGGLVQTGGSLRLSCAASGFPIGSHWMSWVRQSPGKGLEWVASIKQDGREKHFVDSVKGRFGISRDNAKDSLYLQMNSLRIEDTAVYYCARETYGGYYYYFMDVWGRGTLVTVSSGGGGSGGGGSGGGGSSELTQDPAVSVALGQTVRITCQGDSLRSYYASWYQQKPGQAPVLVIYGKNNRPSGIPDRFSGSSSGNTASLTITGAQAEDEADYYCQTWGPGIRVFGGGTKLTVLG
no binding
GMBC678 (scFv) scFv: EVQLVESGGGLVKPGGSLRLSCAASGFTFSDAWMNWVRQAPGKGLEWVGRIKSKGSGGTIDYAAPVKDRFTISRDDSKNTLYLQMNSLKTEDTALYYCTWDWDFYYGMNVWGQGTLVTVSSGGGGSGGGGSGGGGSQSVLTQPPSASGSPGQSVTISCTGTSSDVGGYNYVSWYQQHPGKAPKFMIYDVSKRPSGVSNRFSGSKSGNTASLTISGVQAEDEADYYCSSYTSASTVIFGGGTKLTVLG
no binding
GMBC621 (scFv) scFv: EVQLVQSGGGVVQPGRSLRLSCAASGFTFSSYGMHWVRQAPGKGLEWVAVISYDGSNKYYADSVKGRFTISRDNSKNTLYLQMDSLRAEDTAVYFCAKRGLWTPIDYWGKGTLVTVSSGGGGSGGGGSGGGGSSELTQDPAVSVALGQTVRITCQGDSLRSYYASWYQQKPGQAPVLVIYGKNNRPSGIPDRFSGSNSGNTASLTITGAQAEDEADYYCNSRDSSGNHVVFGGGTKLTVLG
no binding
